Consider the following compounds; for each one, report its pIC50.
- TARGET UNDER TEST: rat mGlu 5a receptor (Rattus norvegicus, UniProt P31424)
- Sequence (P31424 21-1171 isoform P31424-2 limits assumed): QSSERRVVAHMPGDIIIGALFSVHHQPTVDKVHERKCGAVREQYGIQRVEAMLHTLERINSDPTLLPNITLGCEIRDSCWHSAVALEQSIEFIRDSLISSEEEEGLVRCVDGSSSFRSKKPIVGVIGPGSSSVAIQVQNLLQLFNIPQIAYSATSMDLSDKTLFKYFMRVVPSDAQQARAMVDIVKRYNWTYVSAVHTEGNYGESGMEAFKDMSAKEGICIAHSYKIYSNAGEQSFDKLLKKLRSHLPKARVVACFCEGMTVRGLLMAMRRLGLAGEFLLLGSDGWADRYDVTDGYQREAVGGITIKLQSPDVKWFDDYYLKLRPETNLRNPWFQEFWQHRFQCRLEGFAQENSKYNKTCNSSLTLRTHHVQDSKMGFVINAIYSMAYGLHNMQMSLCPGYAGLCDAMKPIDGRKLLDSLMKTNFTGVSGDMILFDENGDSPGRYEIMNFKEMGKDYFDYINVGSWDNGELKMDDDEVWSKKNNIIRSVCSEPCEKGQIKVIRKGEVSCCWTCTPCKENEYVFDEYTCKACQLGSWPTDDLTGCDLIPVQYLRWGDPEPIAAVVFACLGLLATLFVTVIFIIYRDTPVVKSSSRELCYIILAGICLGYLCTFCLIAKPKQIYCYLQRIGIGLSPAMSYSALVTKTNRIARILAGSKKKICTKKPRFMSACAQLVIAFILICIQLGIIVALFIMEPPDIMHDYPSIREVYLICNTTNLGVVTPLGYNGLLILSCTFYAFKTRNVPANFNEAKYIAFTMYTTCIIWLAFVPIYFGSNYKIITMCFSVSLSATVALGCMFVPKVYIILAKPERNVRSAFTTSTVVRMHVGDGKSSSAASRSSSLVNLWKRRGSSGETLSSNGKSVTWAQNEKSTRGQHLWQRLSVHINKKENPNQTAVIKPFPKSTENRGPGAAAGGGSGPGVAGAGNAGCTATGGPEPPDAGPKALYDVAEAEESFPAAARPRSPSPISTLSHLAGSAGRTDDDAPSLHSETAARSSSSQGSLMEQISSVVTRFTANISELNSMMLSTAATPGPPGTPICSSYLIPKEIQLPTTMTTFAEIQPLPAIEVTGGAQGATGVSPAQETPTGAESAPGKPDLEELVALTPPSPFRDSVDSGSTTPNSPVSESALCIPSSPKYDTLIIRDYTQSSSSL
- PROCEDURE DETAILS: [Ca2+]i measurement (FLIPR) on mGlu 5a transfected EBNA cells, antagonist mode
- CONDITION INFO: rat mGlu 5a transiently transfected EBNA cells; Fluo 3-AM; tested against 10 μM glutamate as agonist
Answers are plain numbers, as −log10 of the molar value.

These recorded examples may help you get a feel for the data.
COMPOUND: CCOC(=O)CSc1ncc(Cc2cccn2C)c(N)n1
MEASUREMENT: 6.42

COMPOUND: CCOC(=O)CSc1ncc(Cc2ccoc2)c(N)n1
MEASUREMENT: 6.80

COMPOUND: Nc1nc(SCc2ncon2)ncc1Cc1cccs1
MEASUREMENT: 6.40

Here are 6 compounds. What values of pIC50 were reported for them?
1. CC1CC1COC(=O)CSc1ncc(Cc2ccccc2)c(N)n1 (centres unmarked)
2. C=CCOC(=O)CSc1ncc(Cc2ccccc2)c(N)n1
3. Nc1nc(SCC(=O)OCC2CCC2)ncc1Cc1ccccc1
4. CCOC(=O)CSc1ncc(Cc2cccs2)c(NCC(C)C)n1
5. CCOC(=O)CSc1ncc(Cc2ccccc2)c(N)n1
6. CCOC(=O)CSc1ncc(C(=O)OCC)c(N)n1

1: 6.20; 2: 6.92; 3: 5.84; 4: 6.80; 5: 6.85; 6: 6.57

Here are 2 compounds. What values of pIC50 were reported for them?
1. CCNc1nc(SCC(=O)OCC)ncc1Cc1cccs1
2. C#CCSc1ncc(Cc2cccs2)c(N)n1

1: 6.22; 2: 5.86
